# ASSAY_METHOD_TEXT: protein stability index of a GFP-peptide fusion (GPS, HEK-293T) (PSI 1-6); higher = more stable;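 note: 24-mer peptide tiles fused after GFP, lentivirally expressed, FACS-sorted into six equal bins by GFP/DsRed ratio, decoded by Illumina sequencing, PSI is the read-weighted mean bin number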
# COND: treatment: DMSO; c terminus: a fixed tail appended
READOUT_TYPE: protein stability index

# count of solved cases: 2
1. MAYAKLMLTVMTKYQANITETQRL [FANCE]
3.16
2. MLLELTRRGQEPLSALLQFGVTYL [BCL2L13]
2.63

For this sequence ( SVQQNGSIYIHVYFTKSGFHPDPR [CLPTM1] ), measured protein stability index is 3.14

Short answer for VNGSWYIQDLCEMLGKYGSSLEFT [CASP6] : protein stability index was 2.95

protein stability index reported for this sequence LRQQCAQVLRNNPDALSDVGEVPY [ELOA2] : 3.88

The measured protein stability index associated with FYLVYFKIQASGETPNSLNTTVIP [LYSMD4] reads 2.9

protein stability index reported for this sequence KLSAKSLQTLRSFSHTLVSLSLFG [ZER1] : 3

Query KDMNFLKRYAGREEHWVGLKKEPG [CD69] yields protein stability index of 3.61

// protein stability index lookup, sequence = ERLDELQDKSESLSDNATAFSNRS [VAMP4] , result: 5.44
